Please provide measured IC50 for the entries that follow.
molecular target: recombinant human UAE (Homo sapiens (Human)); assay: Ubiquitin Activating Enzyme (UAE) HTRF assay, human UAE
Sequence (P22314 whole entry): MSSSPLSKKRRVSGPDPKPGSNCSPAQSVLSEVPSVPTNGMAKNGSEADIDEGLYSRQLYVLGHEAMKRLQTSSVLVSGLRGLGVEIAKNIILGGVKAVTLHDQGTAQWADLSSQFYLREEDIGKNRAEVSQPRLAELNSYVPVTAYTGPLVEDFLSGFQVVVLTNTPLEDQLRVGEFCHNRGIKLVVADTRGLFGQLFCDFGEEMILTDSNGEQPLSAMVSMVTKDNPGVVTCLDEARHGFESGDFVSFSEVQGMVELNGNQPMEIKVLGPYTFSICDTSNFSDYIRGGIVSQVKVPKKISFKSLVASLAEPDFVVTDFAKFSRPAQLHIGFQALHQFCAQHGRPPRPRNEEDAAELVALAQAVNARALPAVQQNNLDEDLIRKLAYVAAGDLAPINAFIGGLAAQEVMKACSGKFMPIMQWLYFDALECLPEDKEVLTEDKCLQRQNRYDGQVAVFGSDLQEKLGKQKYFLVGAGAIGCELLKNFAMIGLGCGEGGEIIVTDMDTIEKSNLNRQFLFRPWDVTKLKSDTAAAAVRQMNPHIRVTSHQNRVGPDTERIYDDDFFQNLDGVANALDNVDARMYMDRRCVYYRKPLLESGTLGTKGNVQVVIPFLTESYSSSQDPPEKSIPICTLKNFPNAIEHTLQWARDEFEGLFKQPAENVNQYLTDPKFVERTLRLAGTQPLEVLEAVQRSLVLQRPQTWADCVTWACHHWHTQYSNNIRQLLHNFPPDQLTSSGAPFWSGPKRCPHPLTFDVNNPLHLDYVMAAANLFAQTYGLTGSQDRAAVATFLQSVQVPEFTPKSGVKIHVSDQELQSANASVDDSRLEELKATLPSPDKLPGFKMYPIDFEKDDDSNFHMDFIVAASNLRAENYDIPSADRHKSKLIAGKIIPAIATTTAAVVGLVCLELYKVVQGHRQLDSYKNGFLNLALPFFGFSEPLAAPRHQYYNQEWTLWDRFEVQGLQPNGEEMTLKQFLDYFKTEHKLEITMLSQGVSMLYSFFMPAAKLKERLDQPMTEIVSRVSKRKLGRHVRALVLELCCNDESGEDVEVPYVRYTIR

Here are 8 molecules together with their reported answers.
>  <Molecule>
NS(=O)(=O)OC[C@H]1C[C@@H](Nc2ccnc3cc(-c4cncc(-c5ccccc5)n4)nn23)[C@H](O)[C@@H]1O (racemic)

>  <IC50>
< 10 nM

$$$$
>  <Molecule>
NS(=O)(=O)OC[C@H]1C[C@@H](Nc2ccnc3cc(-c4ccccc4SC(F)(F)F)nn23)[C@H](O)[C@@H]1O (racemic)

>  <IC50>
10 to 100 nM

$$$$
>  <Molecule>
CC(C)(C)c1cccc(-c2cc3nccc(N[C@@H]4C[C@H](COS(N)(=O)=O)[C@@H](O)[C@H]4O)n3n2)c1 (racemic)

>  <IC50>
< 10 nM

$$$$
>  <Molecule>
NS(=O)(=O)OC[C@H]1C[C@@H](Nc2ccnc3cc(-c4cccc(N5CCCCC5)c4)nn23)[C@H](O)[C@@H]1O (racemic)

>  <IC50>
< 10 nM

$$$$
>  <Molecule>
NS(=O)(=O)OC[C@H]1C[C@@H](Nc2ccnc3cc(-c4cccc(Oc5ccccc5)c4)nn23)[C@H](O)[C@@H]1O (racemic)

>  <IC50>
10 to 100 nM

$$$$
>  <Molecule>
NS(=O)(=O)OC[C@H]1C[C@@H](Nc2ccnc3cc(-c4cccc(Cc5ccccc5)c4)nn23)[C@H](O)[C@@H]1O (racemic)

>  <IC50>
10 to 100 nM

$$$$
>  <Molecule>
Cn1cc(-c2cccc(-c3cc4nccc(N[C@@H]5C[C@H](COS(N)(=O)=O)[C@@H](O)[C@H]5O)n4n3)c2)cn1 (racemic)

>  <IC50>
< 10 nM

$$$$
>  <Molecule>
NS(=O)(=O)OC[C@H]1C[C@@H](Nc2ccnc3cc(-c4c[nH]c5cc(Cl)ccc45)nn23)[C@H](O)[C@@H]1O (racemic)

>  <IC50>
< 10 nM

$$$$

# batch: return IC50 for each of the 5 molecules below
1. COc1ccc(OC(F)(F)F)cc1-c1cc2nccc(N[C@@H]3C[C@H](COS(N)(=O)=O)[C@@H](O)[C@H]3O)n2n1 (racemic)
2. C[Si](C)(C)c1cccc(-c2cc3nccc(N[C@@H]4C[C@H](COS(N)(=O)=O)[C@@H](O)[C@H]4O)n3n2)c1 (racemic)
3. NS(=O)(=O)OC[C@H]1C[C@@H](Nc2ccnc3cc(-c4cccc5cccnc45)nn23)[C@H](O)[C@@H]1O (racemic)
4. NS(=O)(=O)OC[C@H]1C[C@@H](Nc2ccnc3cc(-c4cncc5ccccc45)nn23)[C@H](O)[C@@H]1O (racemic)
5. NS(=O)(=O)OC[C@H]1C[C@@H](Nc2ccnc3cc(-c4ccc(Cl)cc4Cl)nn23)[C@H](O)[C@@H]1O (racemic)

Reply:
1: < 10 nM; 2: < 10 nM; 3: < 10 nM; 4: < 10 nM; 5: 10 to 100 nM

* * *

molecular target: recombinant human UAE (Homo sapiens (Human)); assay: Ubiquitin Activating Enzyme (UAE) HTRF assay, human UAE
Please provide measured IC50 for the entries that follow.

Here are 7 molecules together with their reported answers.
>  <Molecule>
NS(=O)(=O)OC[C@H]1C[C@@H](Nc2ccnc3cc(-c4c[nH]c5ccc(Cl)cc45)nn23)[C@H](O)[C@@H]1O (racemic)

>  <IC50>
< 10 nM

$$$$
>  <Molecule>
NS(=O)(=O)OC[C@H]1C[C@@H](Nc2ccnc3cc(-c4cccc(C(F)(F)F)n4)nn23)[C@H](O)[C@@H]1O (racemic)

>  <IC50>
10 to 100 nM

$$$$
>  <Molecule>
NS(=O)(=O)OC[C@H]1C[C@@H](Nc2ccnc3cc(-c4ccc5ncccc5c4)nn23)[C@H](O)[C@@H]1O (racemic)

>  <IC50>
< 10 nM

$$$$
>  <Molecule>
NS(=O)(=O)OC[C@H]1C[C@@H](Nc2cc(Cl)nc3cc(-c4ccccc4)nn23)[C@H](O)[C@@H]1O (relative stereo)

>  <IC50>
100 to 1000 nM

$$$$
>  <Molecule>
CC1(C)COc2c(-c3cc4nccc(N[C@@H]5C[C@H](COS(N)(=O)=O)[C@@H](O)[C@H]5O)n4n3)cccc21 (racemic)

>  <IC50>
10 to 100 nM

$$$$
>  <Molecule>
Cc1sc(-c2ccccc2)nc1-c1cc2nccc(N[C@@H]3C[C@H](COS(N)(=O)=O)[C@@H](O)[C@H]3O)n2n1 (racemic)

>  <IC50>
< 10 nM

$$$$
>  <Molecule>
NS(=O)(=O)OC[C@H]1C[C@@H](Nc2ccnc3cc(-c4cccc5c4oc4ccccc45)nn23)[C@H](O)[C@@H]1O (racemic)

>  <IC50>
< 10 nM

$$$$

Now look at this one.
Task item: Record lookup: for recombinant human UAE (Homo sapiens (Human)), what IC50 belongs to NS(=O)(=O)OC[C@H]1C[C@@H](Nc2ccnc3cc(-c4cccc5c4sc4ccccc45)nn23)[C@H](O)[C@@H]1O (racemic) ?
Reply: < 10 nM
